- Assay Method Text: Half life in ICR mouse at 25 mg/kg, po administered as single dose
- Type: ADME, organism-based
- Experimental Setup: in vivo
Parameter Measured: half-life (min)

- CS(=O)(=O)CCn1c(CN2C(=O)C3(CC3)c3ccncc32)cc2cc(Cl)cnc21: 42

[P] O=C1N(Cc2cc3cc(Cl)ccc3n2[C@@H]2CCS(=O)(=O)C2)c2cnccc2C12CC2
[Q] CS(=O)(=O)CCn1c(CN2C(=O)C3(CC3)c3ccncc32)cc2cc(Cl)ccc21
IN: Between P and Q , whose measured half-life reads higher? Let me know the label of the one you choose.
OUT: P

###

- Assay Method Text: Cytotoxicity against human Hep2 cells assessed as reduction in cell viability after 6 days by MTT assay
- Type: cell-based
- Experimental Setup: HEp-2 cells
Parameter Measured: CC50 at 144 h (µM)
Write the answer as a number in µM, unit excluded.

Solved entries:
• CS(=O)(=O)CCn1c(CN2C(=O)C3(CC3)c3ccncc32)cc2c(Br)cccc21 = 49.9
• Cc1cccc2c1cc(CN1C(=O)C3(CC3)c3ccncc31)n2CCS(C)(=O)=O = 61.6
• O=C1N(Cc2cc3cc(Cl)ccc3n2[C@@H]2CCS(=O)(=O)C2)c2cnccc2C12CC2 = 37.1
• CS(=O)(=O)CCn1c(CN2C(=O)C3(CC3)c3ccncc32)cc2cc(Cl)cnc21 = 41.7
• CS(=O)(=O)CCn1c(CN2C(=O)C3(CC3)c3ccncc32)cc2ccccc21 = 77.5

Turning now to a further compound:
IN: Answer with the recorded CC50 at 144 h for the compound listed here: "CS(=O)(=O)CCn1c(CN2C(=O)C3(CC3)c3cnccc32)cc2cc(Cl)ccc21"
OUT: 96.8
